biological target: pan-HDAC; experiment: In vitro enzyme inhibition assay - HDAC (HDAC-Glo I/II), pan-HDAC; type: biochemical
Where a name gives a salt, the structure may show the parent alone.
Measured Property: IC50 (nM)

Field request: IC50 | item: N#Cc1ccc(-c2c(-c3ccc(/C=C/C(=O)NO)c(O)c3)cnc(N3CCC(N)CC3)c2C#N)cc1F [Example 62, hydrochloride]
5.53

// same read-out, input: COc1ccc(-c2cnc(N3CCC(N)(CCc4ccc(/C=C/C(=O)NO)cc4)CC3)c(C#N)c2-c2ccc(C#N)c(F)c2)cc1O [Example 86, formate]
13.8

Follow-up entry: N#Cc1ccc(-c2c(-c3ccc(Cl)c(O)c3)cnc(N3CCC(NCc4cnc(/C=C/C(=O)NO)nc4)CC3)c2C#N)cc1F [Example 159, hydrochloride]
2.71

a = COc1ccc(-c2cnc(N3CCC(NCc4ccc(/C=C/C(=O)NO)cc4)CC3)c(OC)c2-c2ccc(C#N)nc2)cc1O [Example 263, formate]
b = COc1ccc(-c2cnc(N3CCC(NCc4ccc(/C=C/C(=O)NO)cc4F)CC3)c(C#N)c2-c2ccc(C#N)nc2)cc1O [Example 252, formate]
When a and b are compared, which has the higher number for IC50? Which one? Tell me its label.
b

a = COc1ccc(-c2c(-c3ccc(C#N)c(F)c3)nc(N3CCC(NCc4ccc(/C=C/C(=O)NO)cc4)CC3)n(C)c2=O)cc1O [Example 67, formate]
b = COc1ccc(-c2cnc(N3CCC(NCc4ccc(/C=C(\F)C(=O)NO)cc4)CC3)c(F)c2-c2ccc(C#N)nc2)cc1O
c = COc1ccc(-c2cnc(N3CCC(NCc4cnc(CCC(=O)NO)nc4)CC3)c(C#N)c2-c2ccc(C#N)c(F)c2)cc1O [Example 152, hydrochloride]
Rank order required: IC50, descending. I would appreciate it if you listed the labels in the requested order.
a, c, b
(a: 39 nM, c: 2.57 nM, b: 0.83 nM)

A = COc1cc(F)c(-c2cnc(N3CCC(NCc4ccc(/C=C/C(=O)NO)cc4)CC3)c(C)c2-c2ccc(C#N)nc2)cc1O [Example 262, formate]
B = COc1ccc(-c2cnc(N3CCC(C)(NCc4ccc(/C=C/C(=O)NO)cc4)CC3)c(C#N)c2-c2ccc(C#N)c(F)c2)cc1O [Example 44, formate]
C = COc1ccc(-c2cnc(N3CCC(NCc4cnc(/C=C/C(=O)NO)cn4)CC3)c(C#N)c2-c2ccc(C#N)c(F)c2)cc1O [Example 133, trifluoroacetate]
D = COc1ccc(-c2cnc(N3CCC(NCc4ccc(/C=C/C(=O)NO)c(F)c4)CC3)c(C#N)c2-c2ccc(C#N)nc2)cc1O [Example 258, formate]
E = COc1ccc(-c2cnc(N3CCC(NCc4ccc(CCC(=O)NO)cc4)CC3)c(C)c2-c2ccc(C#N)c(F)c2)cc1O [Example 209, hydrochloride]
Put the molecules in ascending order of IC50. Give me the labels in the order the question wants.
D, A, C, B, E
(D: 0.3 nM, A: 0.61 nM, C: 11.8 nM, B: 27.9 nM, E: 163 nM)

P = COc1ccc(-c2cnc(N3CCC(NCc4ccc(/C=C/C(=O)NO)nc4)CC3)c(C#N)c2-c2ccc(C#N)c(F)c2)cc1O
Q = Cc1cc(-c2c(OCCCCCCC(=O)NO)cc(N3CCC(N)CC3)nc2-c2ccc(C#N)c(F)c2)ccn1 [Example 10, hydrochloride]
R = COc1ccc(-c2cnc(N3CCC(N(C)Cc4ccc(/C=C/C(=O)NO)cc4)CC3)c(C#N)c2-c2ccc(C#N)c(F)c2)cc1O [Example 42, formate]
Hello, I need these entries ordered by IC50, highest reading first. Thanks! Please, when replying, give the labels in the order that was requested.
Q, R, P
(Q: 39 nM, R: 9.25 nM, P: 0.8 nM)

1 = N#Cc1ccc(-c2c(-c3ccc(C4CC4)c(O)c3)cnc(N3CCC(NCc4ccc(/C=C/C(=O)NO)cc4)CC3)c2C#N)cc1F
2 = N#Cc1ccc(-c2nc(N3CCC(N)CC3)cc(OCCCCCCC(=O)NO)c2-c2ccc(Cl)cc2)cc1F [Example 11, hydrochloride]
3 = CN(C)c1ccc(-c2cnc(N3CCC(NCc4ccc(/C=C/C(=O)NO)cc4)CC3)c(C#N)c2-c2ccc(C#N)c(F)c2)cc1O [Example 153, formate]
Rank descending by IC50. Write the labels, ordered according to the request.
2, 1, 3
(2: 116 nM, 1: 65.3 nM, 3: 5.49 nM)

P = COc1ccc(-c2cnc(N3CCC(NCc4ccc(/C=C/C(=O)NO)c(OC)c4)CC3)c(C#N)c2-c2ccc(C#N)c(F)c2)cc1O [Example 108, formate]
Q = COc1ccc(-c2cnc(N3CCC(NCc4ccc(/C=C/C(=O)NO)nc4)CC3)c(CC#N)c2-c2ccc(C#N)c(F)c2)cc1O [Example 217, formate]
R = COc1cc(F)c(-c2cnc(N3CCC(NCc4ccc(/C=C/C(=O)NO)cc4)CC3)c(OC)c2-c2ccc(C#N)nc2)cc1O [Example 265, formate]
Put the molecules in ascending order of IC50. Record the ranking as a list of labels in the requested order.
Q, R, P

* * *

Dear all, this message contains pIC50 results, target or system LSD1 (Homo sapiens (Human)).
pIC50: −log10 of the molar value. Counter-ions that a name gives are not always drawn.
Measured Property: pIC50

Here are 4 molecules together with their reported answers.
Find the recorded pIC50 belonging to COc1ccc(-c2cnc(N3CCC(NCc4ccc(/C=C/C(=O)NO)cc4)CC3)c(C#N)c2-c2ccc(C#N)c(F)c2)cc1 [Example 52, hydrochloride] and report it.
7.32

Field entry: N#Cc1ccc(-c2c(-c3ccc(OCCCCCCC(=O)NO)c(O)c3)cnc(N3CCC(N)CC3)c2C#N)cc1F [Example 25, hydrochloride]
9.64

Follow-up item: COc1ccc(-c2cnc(N3CCC(C)(NCc4cnc(/C=C/C(=O)NO)nc4)CC3)c(C#N)c2-c2ccc(C#N)c(F)c2)cc1O [Example 206, formate]
8.69

Try this molecule too: COc1cc(-c2ccc(CN3CC[C@H](NCc4ccc(/C=C/C(=O)NO)cc4)C3)cc2-c2ccc(C#N)c(F)c2)ccc1O [Example 75]
6.89

1 = CN(C)c1ncc(-c2c(OCCCCCCC(=O)NO)cc(N3CCC(N)CC3)nc2-c2ccc(C#N)c(F)c2)cn1 [Example 13, formate]
2 = Cc1noc2cc(-c3c(-c4ccc(C#N)c(F)c4)nc(N4CCC(NCc5ccc(/C=C/C(=O)NO)cc5)CC4)n4ccnc34)c(F)cc12 [Example 36, formate]
Lab note: check whether 1 or 2 has the lower measured pIC50. The response must carry the label of the picked entry.
1

I = COc1ccc(-c2cnc(N3CCC(NCc4ccc(/C=C/C(=O)NO)cc4)CC3)c(C#N)c2-c2ccc(C#N)c(O)c2)cc1O [Example 166, hydrochloride]
II = COc1ccc(-c2cnc(N3CCC(NCc4ccc(/C=C/C(=O)NO)cc4)CC3)c(C#N)c2-c2cnc(C#N)c(C)c2)cc1O [Example 247, formate]
For the two items I and II , which reports the higher pIC50 value? Select an item and report its label.
II

A = CC(C)(O)COc1ccc(-c2cnc(N3CCC(NCc4ccc(CCC(=O)NO)cc4)CC3)c(C#N)c2-c2ccc(C#N)c(F)c2)cc1O [Example 188, formate]
B = COc1ccc(-c2cnc(N3CCC(NCc4ccc(/C=C/C(=O)NO)cc4)CC3)c(C(F)(F)F)c2-c2ccc(C#N)c(F)c2)cc1O [Example 147]
Compare the recorded pIC50 of A and B ; state which is larger. The response must carry the label of the picked entry.
A

a = COc1ccc(-c2cnc(N3CCC(Nc4cccc(/C=C/C(=O)NO)c4)CC3)c(C#N)c2-c2ccc(C#N)c(F)c2)cc1O [Example 81, formate]
b = Cc1noc2cc(-c3cnc(N4CCC(NCc5ccc(/C=C/C(=O)NO)cn5)CC4)c(C#N)c3-c3ccc(C#N)c(F)c3)c(F)cc12 [Example 236, formate]
Field: entry with larger pIC50 (options a / b ). Indicate your choice by writing its label.
b

* * *

Target: HDAC1 (Homo sapiens (Human))
Sequence (Q13547 whole entry): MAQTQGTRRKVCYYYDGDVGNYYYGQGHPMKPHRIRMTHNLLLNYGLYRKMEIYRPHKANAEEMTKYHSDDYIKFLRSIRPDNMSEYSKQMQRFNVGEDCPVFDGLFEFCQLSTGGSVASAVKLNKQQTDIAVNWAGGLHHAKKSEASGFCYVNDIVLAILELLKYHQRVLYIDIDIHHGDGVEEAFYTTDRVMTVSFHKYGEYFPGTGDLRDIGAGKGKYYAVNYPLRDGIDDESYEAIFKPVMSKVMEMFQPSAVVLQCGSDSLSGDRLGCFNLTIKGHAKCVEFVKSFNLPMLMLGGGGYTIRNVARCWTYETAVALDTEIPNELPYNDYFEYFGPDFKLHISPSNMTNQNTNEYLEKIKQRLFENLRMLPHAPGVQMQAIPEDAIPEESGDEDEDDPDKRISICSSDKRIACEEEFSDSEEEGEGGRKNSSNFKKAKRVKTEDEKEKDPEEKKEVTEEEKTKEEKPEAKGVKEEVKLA
Assay: In vitro enzyme inhibition assay - HDAC (HDAC-Glo I/II), HDAC1
Assay type: biochemical
Details: read-out: HDAC IC50 (nM) HDAC 1
Excerpt: 2. In Vitro Enzyme Inhibition Assay—HDAC The effect of the compound on the enzymatic activity of pan-HDAC and two isoforms (HDAC1 and HDAC8) was examined using the HDAC-Glo I/II Assay and Screening System assay to assess the level of inhibition of HDAC protease activity and selectivity in each isoform. […] The 384-well plate was then read on a multifunctional microplate reader, with the Luminescence channel selected to record Luminescence values (RLU). […]
Where a name gives a salt, the structure may show the parent alone.
Measured Property: IC50 (nM)

Field: example entries. Status: answers known.
Report IC50 for COc1ccc(-c2cnc(N3CCC(NCc4ccc(CCC(=O)NO)c(F)c4)CC3)c(C#N)c2-c2ccc(C#N)c(F)c2)cc1O tested on HDAC1 (Homo sapiens (Human)).
4.81

Can you check COc1ccc(-c2cnc(N3CCC(NCc4cnc(/C=C/C(=O)NO)s4)CC3)c(C#N)c2-c2ccc(C#N)c(F)c2)cc1O next?
26.3

a = COc1ccc(-c2cnc(N3CCC(NCc4ccc(/C=C/C(=O)NO)cc4)CC3)c(C#N)c2-c2ccc(C#N)c(F)c2)cc1F [Example 40, hydrochloride]
b = Cc1noc2cc(-c3cnc(N4CCC(NCc5ccc(/C=C/C(=O)NO)cc5)CC4)c(C#N)c3-c3ccc(C#N)c(F)c3)c(F)cc12
c = CNC1CCN(c2ncc(-c3ccc(OCCCCCCC(=O)NO)c(O)c3)c(-c3ccc(C#N)c(F)c3)c2C#N)CC1 [Example 24, hydrochloride]
Rank the 3 compounds: largest IC50 first, smallest last. The reply should contain the labels ordered as requested.
b, a, c

A = COc1ccc(-c2cnc(N3CCC(NCc4ccc(/C=C/C(=O)NO)c(OC)c4)CC3)c(C#N)c2-c2ccc(C#N)c(F)c2)cc1O [Example 108, formate]
B = CC(C)(O)COc1ccc(-c2cnc(N3CCC(NCc4ccc(/C=C(\F)C(=O)NO)cc4)CC3)c(C#N)c2-c2ccc(C#N)c(F)c2)cc1O [Example 198, formate]
C = COc1ccc(-c2cnc(N3CCC(NCc4ccc(/C=C/C(=O)NO)cc4)CC3)c(C#N)c2-c2ccc(C#N)cc2F)cc1O [Example 134, formate]
D = Cc1noc2cc(-c3c(-c4ccc(C#N)c(F)c4)nc(N4CCC(NCc5ccc(/C=C/C(=O)NO)cc5)CC4)n4ccnc34)c(F)cc12 [Example 36, formate]
Hey, can you sort those compounds up there by IC50, smallest first? // rank by listing labels in the order requested
C, B, A, D

A = CC(C)(O)COc1ccc(-c2cnc(N3CCC(NCc4ccc(/C=C/C(=O)NO)cc4)CC3)c(CC#N)c2-c2ccc(C#N)c(F)c2)cc1O [Example 218, formate]
B = COc1ccc(-c2cnc(N3CCC(NCc4ccc(/C=C/C(=O)NO)s4)CC3)c(C#N)c2-c2ccc(C#N)c(F)c2)cc1O [Example 105, formate]
Between the two listed entries A and B , which has its IC50 at the higher number? Give the chosen item's label as your response.
B
